Data credit: ChEMBL document CHEMBL4689842

# Test system: HEK-293T
# Experiment: Multiplex assay against HEK293T
# Assay type: toxicity, cell-based
# Condition description: human, 24 h, 1 µM, compound concentration 1 uM, replicate 2
Property measured: Population Mitochondria Different-Phenotype (%)
Write down the numeric answer in % and omit the unit.

The compound CCN1CCN(c2ccc(Nc3cc(N(C)C(=O)Nc4c(Cl)c(OC)cc(OC)c4Cl)ncn3)cc2)CC1 showed Population Mitochondria Different-Phenotype (%) equal to 20

The compound COc1ccc(S(=O)(=O)N(CCO)c2ccccc2CN(C)C/C=C/c2ccc(Cl)cc2)cc1.O=P(O)(O)O showed Population Mitochondria Different-Phenotype (%) equal to 95

The compound COc1cccc2cc(-c3nc([C@H]4CC[C@H](C(=O)O)CC4)n4ncnc(N)c34)[nH]c12 showed Population Mitochondria Different-Phenotype (%) equal to 13

The compound Cl.O=C(c1ccc(Nc2nccc(-c3cc4ccccc4s3)n2)cc1)N1CCC(N2CCCC2)CC1 showed Population Mitochondria Different-Phenotype (%) equal to 4

The compound CCOc1cc(C(=O)N2CCC(N3CCN(C)CC3)CC2)ccc1Nc1ncc2c(n1)N(C1CCCC1)c1ccccc1C(=O)N2C showed Population Mitochondria Different-Phenotype (%) equal to 92

The compound CN1C2CCC1CC(OC(c1ccc(F)cc1)c1ccc(F)cc1)C2.Cl (configuration not stated) showed Population Mitochondria Different-Phenotype (%) equal to 35

The compound C[C@H]1Oc2cc(cnc2N)-c2c(nn(C)c2C#N)CN(C)C(=O)c2ccc(F)cc21 showed Population Mitochondria Different-Phenotype (%) equal to 1

The compound Cc1ccc2nc(NCCN)c3ncc(C)n3c2c1.O=C(O)C(F)(F)F.O=C(O)C(F)(F)F showed Population Mitochondria Different-Phenotype (%) equal to 1

The compound CN1CCN(C(=O)C(C)(C)c2ccc(C(=O)Nc3cn4cc(-c5cc(C(C)(C)C)cc(C(C)(C)C)c5)ccc4n3)cc2)CC1 showed Population Mitochondria Different-Phenotype (%) equal to 8

The compound O=C(Nc1cccnn1)N1CCC(=Cc2cccc(Oc3ccc(C(F)(F)F)cn3)c2)CC1 showed Population Mitochondria Different-Phenotype (%) equal to 30

The compound O=C1NC(=O)C(c2cnc3ccccn23)=C1c1cn2c3c(cc(F)cc13)CN(C(=O)N1CCCCC1)CC2 showed Population Mitochondria Different-Phenotype (%) equal to 42

The compound Cl.O=c1c2cccn2c2ccccc2n1CCCN1CCC(c2ccc(Cl)cc2)CC1 showed Population Mitochondria Different-Phenotype (%) equal to 75

The compound CCc1cccc(CC)c1NC(=O)c1nn(C)c2c1CCc1cnc(Nc3ccc(N4CCN(C)CC4)cc3OC)nc1-2 showed Population Mitochondria Different-Phenotype (%) equal to 92

The compound CNc1cc(Oc2cc(C(=O)Nc3cc(N4CCN(C)CC4)cc(C(F)(F)F)c3)ccc2C)ncn1 showed Population Mitochondria Different-Phenotype (%) equal to 63

The compound O=C(Nc1ccc(-n2nc(-c3cccnc3)cc2C(F)(F)F)cn1)c1ccc(-c2ccccc2)c(F)c1 showed Population Mitochondria Different-Phenotype (%) equal to 6

The compound COc1cc2ncnc(Nc3ccc(F)c(Cl)c3)c2cc1NC(=O)/C=C/CN1CCCCC1 [DACOMITINIB ANHYDROUS] showed Population Mitochondria Different-Phenotype (%) equal to 13

The compound CCn1c(=O)c(-c2ccc(-c3cncs3)cc2Cl)cc2cnc(Nc3ccc(N4CCN(C)CC4)cc3)nc21 showed Population Mitochondria Different-Phenotype (%) equal to 15

The compound CN1CCC(=C2c3ccccc3CC(=O)c3sccc32)CC1.O=C(O)/C=C/C(=O)O [KETOTIFEN FUMARATE] showed Population Mitochondria Different-Phenotype (%) equal to 20

The compound COC(=N)c1nc2ccc3ncnc(Nc4ccc(OC)cc4F)c3c2s1 showed Population Mitochondria Different-Phenotype (%) equal to 4

The compound C=C1/C(=C\C=C2/CCC[C@]3(C)[C@@H]([C@H](C)/C=C/[C@H](C)C(C)C)CC[C@@H]23)C[C@@H](O)C[C@@H]1O showed Population Mitochondria Different-Phenotype (%) equal to 5

The compound Cc1cc(C)c(S(=O)(=O)N(Cc2ccc(-c3cccc(S(C)(=O)=O)c3)cc2)Cc2ccc(C(F)(F)F)o2)c(C)c1 showed Population Mitochondria Different-Phenotype (%) equal to 10

The compound CNC(=O)c1ccc(Nc2nc(OC3CCCC3)c3c(-c4ccc5nc(C)oc5c4)c[nH]c3n2)c(OC)c1 showed Population Mitochondria Different-Phenotype (%) equal to 66
